Catalogue of molecules with associated MIC
test system: Streptococcus pneumoniae; assay: Antibacterial activity against Streptococcus pneumoniae MTCC 1936 after 24 hrs by broth microdilution method; assay type: functional; conditions: MTCC 1936, 24 h
Quantity: MIC

>>> result("Cc1nn(-c2cccc(Cl)c2)c2c1[C@@H]1c3cc4cccc(C)c4nc3SC[C@@H]1C(C)(C)O2 (single isomer, unassigned)")
"100 µg/mL"
>>> result("Cc1nn(-c2ccc([N+](=O)[O-])cc2)c2c1[C@@H]1c3c(ccc4c(C)cc(=O)oc34)OC[C@@H]1C(C)(C)O2")
"200 µg/mL"
>>> result("Cc1nn(-c2ccccc2Cl)c2c1[C@@H]1c3c(ccc4c(C)cc(=O)oc34)OC[C@@H]1C(C)(C)O2")
"250 µg/mL"
>>> result("CC1(C)S[C@@H]2[C@H](NC(=O)[C@H](N)c3ccccc3)C(=O)N2[C@H]1C(=O)O")
"100 µg/mL"
>>> result("Cc1nn(-c2cc(Cl)ccc2Cl)c2c1[C@@H]1c3cc4cccc(C)c4nc3SC[C@@H]1CO2")
"250 µg/mL"
>>> result("c1ccc(-c2nn(-c3ccccc3)c3c2[C@@H]2c4cc5ccccc5nc4SC[C@@H]2CO3)cc1")
"250 µg/mL"
>>> result("Cc1nn(-c2ccc(Cl)c(Cl)c2)c2c1[C@@H]1c3c(ccc4c(C)cc(=O)oc34)OC[C@@H]1CO2")
"250 µg/mL"

* * *

assay: Antioxidant activity assessed as ascorbic acid equivalent ferric ion reducing activity per 100 gram at 200 ug/ml by FRAP assay; type: functional
Quick rule for you: Activity under 100 mmol gets Y, anything else gets N.

>>> qualitative_label("Cc1nn(-c2ccccc2Cl)c2c1[C@@H]1c3cc4cccc(C)c4nc3SC[C@@H]1CO2")
"N"
>>> qualitative_label("Cc1nn(-c2ccccc2Cl)c2c1[C@@H]1c3c(ccc4c(C)cc(=O)oc34)OC[C@@H]1CO2")
"N"
>>> qualitative_label("Cc1nn(-c2ccccc2)c2c1[C@@H]1c3cc4cccc(C)c4nc3SC[C@@H]1C(C)(C)O2 (single isomer, unassigned)")
"Y"
>>> qualitative_label("Cc1nn(-c2ccccc2Cl)c2c1[C@@H]1c3cc4ccccc4nc3SC[C@@H]1CO2")
"Y"
>>> qualitative_label("Cc1cc(=O)oc2c3c(ccc12)OC[C@@H]1COc2c(c(-c4ccccc4)nn2-c2ccccc2)[C@H]31")
"N"
>>> qualitative_label("Cc1nn(-c2cccc(Cl)c2)c2c1[C@@H]1c3cc4ccccc4nc3SC[C@@H]1CO2")
"N"
>>> qualitative_label("Cc1ccc(-n2nc(C)c3c2OC[C@H]2CSc4nc5c(C)cccc5cc4[C@@H]32)cc1")
"N"
>>> qualitative_label("Cc1ccc(-n2nc(C)c3c2OC(C)(C)[C@H]2COc4ccc5c(C)cc(=O)oc5c4[C@@H]32)cc1")
"N"

* * *

assay: Antioxidant activity assessed as ascorbic acid equivalent ferric ion reducing activity per 100 gram at 200 ug/ml by FRAP assay; type: functional
Quick reference for Activity among some compounds
Quantity: Activity (mmol)

>>> measured_number("Cc1ccc(-n2nc(C)c3c2OC[C@H]2CSc4nc5ccccc5cc4[C@@H]32)cc1")
121
>>> measured_number("Cc1nn(-c2ccc([N+](=O)[O-])cc2)c2c1[C@@H]1c3c(ccc4c(C)cc(=O)oc34)OC[C@@H]1CO2")
163
>>> measured_number("Cc1nn(-c2cccc(Cl)c2)c2c1[C@@H]1c3cc4cccc(C)c4nc3SC[C@@H]1CO2")
125
>>> measured_number("Cc1nn(-c2cccc(Cl)c2)c2c1[C@@H]1c3c(ccc4c(C)cc(=O)oc34)OC[C@@H]1C(C)(C)O2")
225
>>> measured_number("Cc1nn(-c2cc(Cl)ccc2Cl)c2c1[C@@H]1c3cc4cccc(C)c4nc3SC[C@@H]1CO2")
129
>>> measured_number("Cc1nn(-c2ccccc2Cl)c2c1[C@@H]1c3cc4cccc(C)c4nc3SC[C@@H]1C(C)(C)O2 (single isomer, unassigned)")
115
>>> measured_number("Cc1nn(-c2ccc(Cl)c(Cl)c2)c2c1[C@@H]1c3cc4cccc(C)c4nc3SC[C@@H]1CO2")
61.7

* * *

system: Vibrio cholerae; assay: Antibacterial activity against Vibrio cholerae MTCC 3906 after 24 hrs by broth microdilution method; assay type: functional; settings: MTCC 3906, 24 h
The molecules listed here are annotated with their MIC.
Quantity: MIC (µg/mL)

>>> measured_number("Cc1cccc2cc3c(nc12)SC[C@@H]1COc2c(c(-c4ccccc4)nn2-c2ccccc2)[C@H]31")
200
>>> measured_number("Cc1nn(-c2cc(Cl)ccc2Cl)c2c1[C@@H]1c3cc4cccc(C)c4nc3SC[C@@H]1CO2")
100
>>> measured_number("Cc1nn(-c2cc(Cl)ccc2Cl)c2c1[C@@H]1c3c(ccc4c(C)cc(=O)oc34)OC[C@@H]1CO2")
100
>>> measured_number("Cc1nn(-c2ccc([N+](=O)[O-])cc2)c2c1[C@@H]1c3cc4cccc(C)c4nc3SC[C@@H]1CO2")
250

* * *

tested on: Streptococcus pneumoniae; assay: Antibacterial activity against Streptococcus pneumoniae MTCC 1936 after 24 hrs by broth microdilution method; format: functional; settings: MTCC 1936, 24 h
Note to self: MIC under 100 µg/mL means 1 (yes), ties and anything higher get 0 (no).

>>> qualitative_label("Cc1nn(-c2ccc(Cl)c(Cl)c2)c2c1[C@@H]1c3cc4cccc(C)c4nc3SC[C@@H]1CO2")
"1 (yes)"
>>> qualitative_label("Cc1nn(-c2cc(Cl)ccc2Cl)c2c1[C@@H]1c3cc4ccccc4nc3SC[C@@H]1CO2")
"0 (no)"
>>> qualitative_label("Cc1cc(=O)oc2c3c(ccc12)OC[C@H]1[C@@H]3c2c(-c3ccccc3)nn(-c3ccccc3)c2OC1(C)C")
"0 (no)"
>>> qualitative_label("Cc1nn(-c2cccc(Cl)c2)c2c1[C@@H]1c3c(ccc4c(C)cc(=O)oc34)OC[C@@H]1C(C)(C)O2")
"1 (yes)"
>>> qualitative_label("Cc1nn(-c2ccc([N+](=O)[O-])cc2)c2c1[C@@H]1c3c(ccc4c(C)cc(=O)oc34)OC[C@@H]1CO2")
"0 (no)"
>>> qualitative_label("Cc1nn(-c2ccccc2)c2c1[C@@H]1c3c(ccc4c(C)cc(=O)oc34)OC[C@@H]1CO2")
"0 (no)"
>>> qualitative_label("Cc1nn(-c2ccccc2Cl)c2c1[C@@H]1c3cc4cccc(C)c4nc3SC[C@@H]1C(C)(C)O2 (single isomer, unassigned)")
"0 (no)"
>>> qualitative_label("Cc1nn(-c2ccc([N+](=O)[O-])cc2)c2c1[C@@H]1c3cc4cccc(C)c4nc3SC[C@@H]1CO2")
"0 (no)"
>>> qualitative_label("Cc1cccc2cc3c(nc12)SC[C@@H]1COc2c(c(-c4ccccc4)nn2-c2ccccc2)[C@H]31")
"0 (no)"
>>> qualitative_label("Cc1nn(-c2cccc(Cl)c2)c2c1[C@@H]1c3cc4ccccc4nc3SC[C@@H]1CO2")
"0 (no)"

* * *

tested on: Mycobacterium tuberculosis; assay: Antimycobacterial activity against Mycobacterium tuberculosis H37Rv at 250 ug/ml; format: functional
Quick rule: inhibition at 250 µg/mL of at least 40% means Condition met, below that means Condition not met.

>>> qualitative_label("Cc1nn(-c2cccc(Cl)c2)c2c1[C@@H]1c3cc4cccc(C)c4nc3SC[C@@H]1CO2")
"Condition met"
>>> qualitative_label("Cc1nn(-c2ccccc2)c2c1[C@@H]1c3cc4ccccc4nc3SC[C@@H]1CO2")
"Condition met"
>>> qualitative_label("Cc1nn(-c2cccc(Cl)c2)c2c1[C@@H]1c3c(ccc4c(C)cc(=O)oc34)OC[C@@H]1C(C)(C)O2")
"Condition not met"
>>> qualitative_label("Cc1nn(-c2cc(Cl)ccc2Cl)c2c1[C@@H]1c3cc4cccc(C)c4nc3SC[C@@H]1CO2")
"Condition met"
>>> qualitative_label("Cc1nn(-c2cccc(Cl)c2)c2c1[C@@H]1c3cc4ccccc4nc3SC[C@@H]1CO2")
"Condition met"
>>> qualitative_label("Cc1nn(-c2ccccc2)c2c1[C@@H]1c3cc4cccc(C)c4nc3SC[C@@H]1CO2")
"Condition not met"
>>> qualitative_label("Cc1nn(-c2ccc([N+](=O)[O-])cc2)c2c1[C@@H]1c3cc4cccc(C)c4nc3SC[C@@H]1CO2")
"Condition not met"
>>> qualitative_label("Cc1cc(=O)oc2c3c(ccc12)OC[C@@H]1COc2c(c(-c4ccccc4)nn2-c2ccccc2)[C@H]31")
"Condition met"
>>> qualitative_label("Cc1nn(-c2ccc([N+](=O)[O-])cc2)c2c1[C@@H]1c3c(ccc4c(C)cc(=O)oc34)OC[C@@H]1C(C)(C)O2")
"Condition met"
>>> qualitative_label("Cc1nn(-c2cccc(Cl)c2)c2c1[C@@H]1c3cc4cccc(C)c4nc3SC[C@@H]1C(C)(C)O2 (single isomer, unassigned)")
"Condition met"
>>> qualitative_label("Cc1nn(-c2ccccc2)c2c1[C@@H]1c3c(ccc4c(C)cc(=O)oc34)OC[C@@H]1C(C)(C)O2")
"Condition met"
>>> qualitative_label("Cc1ccc(-n2nc(C)c3c2OC(C)(C)[C@H]2CSc4nc5c(C)cccc5cc4[C@@H]32)cc1 (single isomer, unassigned)")
"Condition met"
>>> qualitative_label("Cc1nn(-c2ccc(Cl)c(Cl)c2)c2c1[C@@H]1c3c(ccc4c(C)cc(=O)oc34)OC[C@@H]1CO2")
"Condition not met"
>>> qualitative_label("Cc1nn(-c2ccccc2)c2c1[C@@H]1c3cc4cccc(C)c4nc3SC[C@@H]1C(C)(C)O2 (single isomer, unassigned)")
"Condition met"
>>> qualitative_label("Cc1nn(-c2cc(Cl)ccc2Cl)c2c1[C@@H]1c3c(ccc4c(C)cc(=O)oc34)OC[C@@H]1CO2")
"Condition not met"
>>> qualitative_label("Cc1nn(-c2ccccc2Cl)c2c1[C@@H]1c3cc4cccc(C)c4nc3SC[C@@H]1CO2")
"Condition not met"
>>> qualitative_label("Cc1nn(-c2cccc(Cl)c2)c2c1[C@@H]1c3c(ccc4c(C)cc(=O)oc34)OC[C@@H]1CO2")
"Condition not met"
>>> qualitative_label("Cc1ccc(-n2nc(C)c3c2OC(C)(C)[C@H]2COc4ccc5c(C)cc(=O)oc5c4[C@@H]32)cc1")
"Condition not met"
>>> qualitative_label("Cc1ccc(-n2nc(C)c3c2OC[C@H]2COc4ccc5c(C)cc(=O)oc5c4[C@@H]32)cc1")
"Condition not met"
>>> qualitative_label("Cc1nn(-c2ccc(Cl)c(Cl)c2)c2c1[C@@H]1c3cc4cccc(C)c4nc3SC[C@@H]1CO2")
"Condition not met"
>>> qualitative_label("Cc1cc(=O)oc2c3c(ccc12)OC[C@H]1[C@@H]3c2c(-c3ccccc3)nn(-c3ccccc3)c2OC1(C)C")
"Condition met"
>>> qualitative_label("Cc1nn(-c2ccc([N+](=O)[O-])cc2)c2c1[C@@H]1c3c(ccc4c(C)cc(=O)oc34)OC[C@@H]1CO2")
"Condition met"
>>> qualitative_label("Cc1nn(-c2ccc(Cl)c(Cl)c2)c2c1[C@@H]1c3c(ccc4c(C)cc(=O)oc34)OC[C@@H]1C(C)(C)O2")
"Condition met"
>>> qualitative_label("Cc1ccc(-n2nc(C)c3c2OC[C@H]2CSc4nc5ccccc5cc4[C@@H]32)cc1")
"Condition not met"
>>> qualitative_label("Cc1nn(-c2ccccc2Cl)c2c1[C@@H]1c3cc4ccccc4nc3SC[C@@H]1CO2")
"Condition met"
>>> qualitative_label("Cc1nn(-c2ccccc2)c2c1[C@@H]1c3c(ccc4c(C)cc(=O)oc34)OC[C@@H]1CO2")
"Condition met"
>>> qualitative_label("Cc1nn(-c2ccccc2Cl)c2c1[C@@H]1c3cc4cccc(C)c4nc3SC[C@@H]1C(C)(C)O2 (single isomer, unassigned)")
"Condition met"
>>> qualitative_label("Cc1ccc(-n2nc(C)c3c2OC[C@H]2CSc4nc5c(C)cccc5cc4[C@@H]32)cc1")
"Condition met"
